Biological target: T1, GST-PTP1B, non-mutated (Cys215): human recombinant PTP1B amino acids 1-320 fused to GST enzyme (glutathione … (human))
T1 chain: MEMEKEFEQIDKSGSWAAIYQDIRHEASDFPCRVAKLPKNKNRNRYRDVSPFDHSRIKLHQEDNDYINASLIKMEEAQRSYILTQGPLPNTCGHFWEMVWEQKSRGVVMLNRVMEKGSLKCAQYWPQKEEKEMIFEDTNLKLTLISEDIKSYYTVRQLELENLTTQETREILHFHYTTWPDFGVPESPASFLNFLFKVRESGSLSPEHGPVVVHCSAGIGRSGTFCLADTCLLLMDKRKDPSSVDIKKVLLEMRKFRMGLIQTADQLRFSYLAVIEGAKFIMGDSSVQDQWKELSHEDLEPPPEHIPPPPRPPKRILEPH
Experiment: SPA competition binding assay against tritiated BzN-EJJ-CONH2, GST-PTP1B non-mutated (Cys215)
Square brackets hold non-standard residues; d marks the D form. * marks the point of attachment. F2Pmp = N[C@@H](Cc1ccc(C(F)(F)P(=O)(O)O)cc1)C(=O)O; Bz = O=C(c1ccccc1)*
measured_property: pIC50
Scale: pIC50 equals -log10([C]), with [C] in mol/L.

Problem: Endpoint output: pIC50 of Bz-Glu-[F2Pmp]-[F2Pmp]-NH2 . Value?
Solution: 7.85

Data credit: patent US6114132A
